Kindly state TGI for each of the entries shown.
- Test system: HS 578T breast
- procedure_summary: NCI tumour cell line growth inhibition, 48 h

Prompt: In one line, give reported TGI of the entry CC[n+]1ccc2c(c1)C(=O)c1nccc3c1c-2nc1ccccc13 .
Response: > 10.1 µM

Prompt: In one line, give reported TGI of the entry O=C(O)CNC(=O)c1ccc([As](=O)(O)O)cc1 .
Response: > 100 µM

Prompt: In one line, give reported TGI of the entry Clc1ccc(Cc2nc3cc4ccccc4cc3[nH]2)cc1 .
Response: 67.7 µM

Prompt: In one line, give reported TGI of the entry O=C1CSC(N2CCN(c3cccc(Cl)c3)CC2)=N1 .
Response: > 100 µM

Prompt: In one line, give reported TGI of the entry CC1=C2c3ccccc3N(C(=O)/C=C/C(=O)O)[C@H]2[C@H]2C(=O)OC(=O)[C@H]2C1 .
Response: > 10 µM

Prompt: In one line, give reported TGI of the entry COc1nc2c(cc1S(=O)(=O)c1ccccc1)CCc1c-2cnn1-c1ccccc1Cl .
Response: > 100 µM

Prompt: In one line, give reported TGI of the entry c1ccc2c(c1)CCCN1CCc3ccccc3C21 (stereo unspecified) .
Response: > 100 µM

Prompt: In one line, give reported TGI of the entry O=C(Cc1ccc(/C=C/C(=O)c2ncc[nH]2)cc1)Nc1ccc(Cl)cc1 .
Response: > 25 µM

Prompt: In one line, give reported TGI of the entry O=C(O)Cc1ccc2nc(COC(=O)c3ccccc3)sc2c1 .
Response: > 100 µM

Prompt: In one line, give reported TGI of the entry CN1CCN(C(=S)N(C)C(=O)c2ccc(Cl)cc2)CC1 .
Response: > 100 µM

Prompt: In one line, give reported TGI of the entry COc1ccc2c(c1)C(=O)c1ccccc1C2 .
Response: > 100 µM

Prompt: In one line, give reported TGI of the entry COc1cc([C@@H]2c3cc4c(cc3C[C@H]3COC(=O)[C@@H]32)OCO4)cc(OC)c1OC .
Response: 0.00715 µM

Prompt: In one line, give reported TGI of the entry CCOC(=O)c1cc(-c2ccc([N+](=O)[O-])cc2)n(-c2ccc(C(=O)O)c(O)c2)c1C .
Response: 17 µM

Prompt: In one line, give reported TGI of the entry CN(C)c1ccc(/C(Br)=C2\OC(=O)c3ccccc32)cc1 .
Response: > 100 µM

Prompt: In one line, give reported TGI of the entry COc1cc2c(cc1OC)C(=O)/C(=C/c1cc(C)c(O)c(C)c1)C2 .
Response: > 100 µM

Prompt: In one line, give reported TGI of the entry COc1cccc(-c2nn(-c3ccccc3)cc2-c2ccnc(NCCCNS(=O)(=O)c3cccc(F)c3)c2)c1 .
Response: > 100 µM

Ref: PubChem BioAssay (NCI)
